Test system Poly [ADP-ribose] polymerase 2 (Homo sapiens), ΔTm listed for each of the compounds.
Answer format: numeric, °C implied, no suffix.

1) C[C@H](NC(=O)Cc1nc2ccccc2c(=O)[nH]1)c1ccccc1 ... -0.01
2) O=C(CCc1nc2ccccc2c(=O)[nH]1)NCc1ccc(F)cc1 ... 1.37
3) O=C(CCc1nc2ccccc2c(=O)[nH]1)N[C@@H]1CCc2ccccc21 ... 1.92

ΔTm on Poly [ADP-ribose] polymerase 2 (Homo sapiens) for "O=C(CCc1nc2ccccc2c(=O)[nH]1)NCc1ccccc1" is 1.77

ΔTm on Poly [ADP-ribose] polymerase 2 (Homo sapiens) for O=C(CCc1nc2ccccc2c(=O)[nH]1)NC1CCCc2ccccc21 (stereo not drawn) is 1.11

ΔTm on Poly [ADP-ribose] polymerase 2 (Homo sapiens) for "O=C(CCc1nc2ccccc2c(=O)[nH]1)NCc1ccc([N+](=O)[O-])cc1" is 0.53

ΔTm on Poly [ADP-ribose] polymerase 2 (Homo sapiens) for "O=C(CCc1nc2ccccc2c(=O)[nH]1)N1CCc2ccccc2C1" is -0.17

ΔTm on Poly [ADP-ribose] polymerase 2 (Homo sapiens) for "O=C(CCc1nc2ccccc2c(=O)[nH]1)NCc1ccc(OC(F)F)cc1" is 1.35

ΔTm on Poly [ADP-ribose] polymerase 2 (Homo sapiens) for "O=C(CCc1nc2ccccc2c(=O)[nH]1)N[C@H]1CCc2ccccc21" is 1.39

ΔTm on Poly [ADP-ribose] polymerase 2 (Homo sapiens) for "O=C(CCc1nc2ccccc2c(=O)[nH]1)NCc1ccccc1Cl" is 1.64

----------
Target: UniProtKB P09874
Sequence (P09874 whole entry): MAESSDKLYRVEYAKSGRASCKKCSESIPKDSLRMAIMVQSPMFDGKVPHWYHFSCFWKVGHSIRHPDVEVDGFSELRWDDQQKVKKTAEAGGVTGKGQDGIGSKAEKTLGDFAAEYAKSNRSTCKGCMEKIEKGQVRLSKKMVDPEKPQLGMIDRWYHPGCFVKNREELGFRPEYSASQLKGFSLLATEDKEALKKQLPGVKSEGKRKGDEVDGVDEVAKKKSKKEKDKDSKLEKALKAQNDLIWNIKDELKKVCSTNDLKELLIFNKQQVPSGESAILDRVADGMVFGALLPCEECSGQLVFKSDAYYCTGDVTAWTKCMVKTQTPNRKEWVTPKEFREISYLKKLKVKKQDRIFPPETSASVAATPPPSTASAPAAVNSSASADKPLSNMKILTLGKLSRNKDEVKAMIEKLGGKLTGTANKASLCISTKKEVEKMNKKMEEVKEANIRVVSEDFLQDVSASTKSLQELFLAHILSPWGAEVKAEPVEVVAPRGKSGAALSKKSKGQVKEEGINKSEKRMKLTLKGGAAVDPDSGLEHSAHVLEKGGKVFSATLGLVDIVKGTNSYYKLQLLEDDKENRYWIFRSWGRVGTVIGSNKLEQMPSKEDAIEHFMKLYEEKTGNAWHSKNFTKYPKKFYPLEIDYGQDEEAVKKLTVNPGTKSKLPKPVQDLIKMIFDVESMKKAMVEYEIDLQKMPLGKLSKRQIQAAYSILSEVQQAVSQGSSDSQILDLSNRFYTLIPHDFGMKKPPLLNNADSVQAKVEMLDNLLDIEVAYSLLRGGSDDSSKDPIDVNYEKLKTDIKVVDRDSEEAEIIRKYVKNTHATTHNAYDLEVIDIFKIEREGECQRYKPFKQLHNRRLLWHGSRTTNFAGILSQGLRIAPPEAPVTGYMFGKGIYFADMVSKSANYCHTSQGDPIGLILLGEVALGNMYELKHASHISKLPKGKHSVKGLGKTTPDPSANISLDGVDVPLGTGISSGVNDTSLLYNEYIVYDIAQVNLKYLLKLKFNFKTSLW
Note to self: ΔTm under 1 °C means 1, ties and anything higher get -1.

Example cases with answers are listed next.
1. O=C(CCc1nc2ccccc2c(=O)[nH]1)NCCc1ccccc1 ... -1
2. O=C(CCc1nc2ccccc2c(=O)[nH]1)NCc1ccc([N+](=O)[O-])cc1 ... -1
3. C[C@H](NC(=O)/C=C/c1nc2ccccc2c(=O)[nH]1)c1ccccc1 ... -1

Is the reported ΔTm for "C[C@H](NC(=O)CCc1nc2ccccc2c(=O)[nH]1)c1cccc(C(F)(F)F)c1" strictly below 1 °C?
1

Is the reported ΔTm for "C[C@@H](NC(=O)CCc1nc2cc(Cl)ccc2c(=O)[nH]1)c1ccccc1" strictly below 1 °C?
1

Is the reported ΔTm for "C[C@H](NC(=O)CCc1nc2ccccc2c(=O)[nH]1)c1cccc(Cl)c1" strictly below 1 °C?
1

----------
Test system Poly [ADP-ribose] polymerase 14, ARTD8/PARP14 (Homo sapiens), ΔTm listed for each of the compounds.
Answer format: numeric, °C implied, no suffix.

Example cases with answers are listed next.
1) CCC(=O)[C@H](Cc1ccccc1)NC(=O)CCc1nc2ccccc2c(=O)[nH]1 ... 0.13
2) C[C@H](NC(=O)CCc1nc2ccccc2c(=O)[nH]1)c1ccc(Cl)cc1 ... 0.04
3) CC(C)(C)CC(NC(=O)CCc1nc2ccccc2c(=O)[nH]1)c1ccccc1 (racemic) ... 0.16
4) C[C@H](NC(=O)CCc1nc2ccccc2c(=O)[nH]1)c1cccc(F)c1 ... -0.18
5) C[C@H](NC(=O)CCc1nc2ccccc2c(=O)[nH]1)c1ccccc1F ... 0.12
6) O=C(CCc1nc2ccccc2c(=O)[nH]1)N[C@@H](Cc1ccccc1)C(=O)O ... -0.37
7) C[C@H](NC(=O)/C=C/c1nc2ccccc2c(=O)[nH]1)c1ccccc1 ... -0.07
8) C[C@@H](NC(=O)Cc1nc2ccccc2c(=O)[nH]1)c1ccccc1 ... -0.04
9) C[C@H](NC(=O)CCCc1nc2ccccc2c(=O)[nH]1)c1ccccc1 ... -0.21
10) C[C@H](NC(=O)Cc1nc2ccccc2c(=O)[nH]1)c1ccccc1 ... 0.04

ΔTm on Poly [ADP-ribose] polymerase 14, ARTD8/PARP14 (Homo sapiens) for "O=C(CCc1nc2ccccc2c(=O)[nH]1)NCc1ccccc1O" is -0.27

ΔTm on Poly [ADP-ribose] polymerase 14, ARTD8/PARP14 (Homo sapiens) for "C[C@H](NC(=O)CCc1nc2ccccc2c(=O)[nH]1)c1cccc(C(F)(F)F)c1" is -0.37

ΔTm on Poly [ADP-ribose] polymerase 14, ARTD8/PARP14 (Homo sapiens) for "O=C(CCc1nc2ccccc2c(=O)[nH]1)N[C@H]1CCc2ccccc21" is 0.18

Hello, the source for this data is ChEMBL document CHEMBL3091384, in case you need it.
